target: Glycogen synthase kinase-3 beta (Homo sapiens); experiment: Inhibition of human GSK3-beta expressed in baculovirus by fluorescence polarization assay
Sequence (P49841 whole entry): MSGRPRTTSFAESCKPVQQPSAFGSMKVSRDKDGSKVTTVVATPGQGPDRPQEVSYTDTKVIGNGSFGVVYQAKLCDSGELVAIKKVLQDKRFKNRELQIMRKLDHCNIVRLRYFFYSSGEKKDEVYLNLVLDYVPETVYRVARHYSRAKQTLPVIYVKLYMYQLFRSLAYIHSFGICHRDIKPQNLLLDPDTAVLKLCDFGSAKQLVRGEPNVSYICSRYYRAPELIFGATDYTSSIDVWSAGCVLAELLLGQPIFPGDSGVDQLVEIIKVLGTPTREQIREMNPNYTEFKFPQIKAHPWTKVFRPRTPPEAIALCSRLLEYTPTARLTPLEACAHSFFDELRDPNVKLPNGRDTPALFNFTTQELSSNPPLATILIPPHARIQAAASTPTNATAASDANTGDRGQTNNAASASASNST
pIC50: −log10 of the molar value.
readout_kind: pIC50

Worked cases, pIC50 given:
N#Cc1cscc1-c1c[nH]c(=O)c2cc(-c3ccncc3)sc12 : 7.90
CCOc1ccc(-c2c[nH]c(=O)c3cc(-c4ccncc4)sc23)cn1 : 6.90
COCc1ccccc1-c1c[nH]c(=O)c2cc(-c3ccncc3)sc12 : 7.00
N#Cc1ccc(F)c(-c2c[nH]c(=O)c3cc(-c4ccncc4)sc23)c1 : 8.30
CN(C)C(=O)c1ccccc1-c1c[nH]c(=O)c2cc(-c3ccncc3)sc12 : 6.50
O=c1[nH]cc(-c2cccc3cccnc23)c2sc(-c3ccncc3)cc12 : 6.50

[A] O=c1[nH]cc(-c2ccc3c(c2)OCCO3)c2sc(-c3ccncc3)cc12
[B] Cc1cc(-c2cc3c(=O)[nH]cc(-c4cccc(NS(C)(=O)=O)c4)c3s2)ccn1
[C] COc1cc(F)ccc1-c1c[nH]c(=O)c2cc(-c3ccncc3)sc12
[D] O=c1[nH]cc(-c2ccc(N3CCOCC3)cc2)c2sc(-c3ccncc3)cc12
## Input Please produce an ascending ranking of these molecules based on pIC50. The response must list the labels following the requested ordering.
## Output B, D, C, A
